So I've got a bunch of compounds here, and I need their Activity values.
# Assay system: Neuropeptide Y receptor type 1 (Homo sapiens)
# Protocol details: Displacement of [3H]NPY from neuropeptide Y1 receptor in human SK-N-MC cells at 10 ug/ml after 60 mins by scintillation counting
# Type: cell-based
Give bare numbers, in %.

Solved entries:
Compound	Assay system	Activity / %
CC/C=C/C(CC)CCC[C@@]1(CC)C[C@H](CC)[C@H](CC(=O)O)OO1 (stereo partly drawn)	Neuropeptide Y receptor type 1 (Homo sapiens)	100
CN(C)CCc1c[nH]c2cc(Br)c(Br)cc12	Neuropeptide Y receptor type 1 (Homo sapiens)	100

From here, focus on the item given below.
Lookup: Item O=C1C2=C(C3=NCCc4c[nH]c1c43)C1(C=C(Br)C(O)C(Br)=C1)CCN2 (stereo not drawn) has what recorded Activity?
Found: 82

###

# Assay system: Endothelin-1 receptor (Homo sapiens) (UniProt P25101)
# Sequence (P25101 whole entry): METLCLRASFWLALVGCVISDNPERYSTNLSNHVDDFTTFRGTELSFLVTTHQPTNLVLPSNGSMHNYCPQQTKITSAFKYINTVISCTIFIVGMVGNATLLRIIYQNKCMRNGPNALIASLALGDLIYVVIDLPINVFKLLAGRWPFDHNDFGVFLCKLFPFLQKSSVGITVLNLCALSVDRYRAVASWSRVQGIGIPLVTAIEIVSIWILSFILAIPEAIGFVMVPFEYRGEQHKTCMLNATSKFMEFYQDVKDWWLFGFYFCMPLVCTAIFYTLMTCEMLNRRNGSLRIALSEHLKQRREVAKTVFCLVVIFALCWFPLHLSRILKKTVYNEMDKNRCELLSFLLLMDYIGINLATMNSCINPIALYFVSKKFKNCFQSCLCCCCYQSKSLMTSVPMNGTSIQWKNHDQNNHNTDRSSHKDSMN
# Protocol details: Displacement of [3H]BQ-123 from human ETA receptor in human SK-N-MC cells at 10 ug/ml after 60 mins by scintillation counting
# Type: cell-based
Quantity kind: Activity (%)
One number for each entry, in %.

Solved entries:
Compound	Unit text	Activity
N=C(NCCCCCCNC(=N)NC(=N)Nc1ccc(Cl)cc1)NC(=N)Nc1ccc(Cl)cc1	%	100
O=C1C2=C(C3=NCCc4c[nH]c1c43)C1(C=C(Br)C(O)C(Br)=C1)CCN2 (stereo unspecified)	%	100
CN(C)CCc1c[nH]c2cc(Br)c(Br)cc12	%	100
CC(C)C[C@H]1NC(=O)[C@@H](Cc2ccccc2)NC(=O)[C@@H](CC(C)C)NC(=O)[C@H](NC(=O)[C@@H](Cc2ccccc2)NC(=O)C(C)C)[C@H](C)OC(=O)[C@H](CO)NC(=O)[C@@H]([C@H](C)O)NC1=O	%	99
CC/C=C/C(CC)CCC[C@@]1(CC)C[C@H](CC)[C@H](CC(=O)O)OO1 (stereo partly specified)	%	100

Look at each compound and report its Activity.
1. Nc1nc([C@H]2[C@H](CNC(=O)c3cc(Br)c[nH]3)[C@@H](CNC(=O)c3cc(Br)c[nH]3)[C@@H]2c2c[nH]c(N)n2)c[nH]1
2. CN(C)CCc1c[nH]c2ccc(Br)cc12
3. O=C1C[C@H]2S[C@H]3C[C@]2(C=C1Br)C1=C(N3)C(=O)c2[nH]cc3c2C1=NCC3
4. CC/C=C/C(CC)CCC[C@@]1(CC)C[C@H](CC)[C@H](CC(=O)OC)OO1 (stereo partly specified)
5. Nc1ncc(C2=CCNC(=O)c3[nH]c(Br)c(Br)c32)[nH]1
6. CC(=O)OC(C)C(OC(C)=O)C(CCCCCCCCCCCCC1=CC(C)OC1=O)C(=O)O (stereo unspecified)

Found:
[100, 97, 100, 100, 78, 98]

###

# Assay system: UniProtKB P25101
# Protocol details: Displacement of [3H]BQ-123 from human ETA receptor in human SK-N-MC cells at 100 ug/ml after 60 mins by scintillation counting
# Type: cell-based
Mark 1 only when Activity stays strictly below 80%. Values equal to the cut-off are 0.

Before answering, review these 6 worked examples.
Compound	Classification
CN(C)CCc1c[nH]c2cc(Br)c(Br)cc12	1
O=C1C2=C(C3=NCCc4c[nH]c1c43)C1(C=C(Br)C(O)C(Br)=C1)CCN2 (stereo unspecified)	0
CC/C=C/C(CC)CCC[C@@]1(CC)C[C@H](CC)[C@H](CC(=O)O)OO1 (stereo partly specified)	1
Nc1ncc(C2=CCNC(=O)c3[nH]c(Br)c(Br)c32)[nH]1	1
CN(C)CCc1c[nH]c2ccc(Br)cc12	0
CC/C=C/C(CC)CCC[C@@]1(CC)C[C@H](CC)[C@H](CC(=O)OC)OO1 (stereo partly specified)	0

Now let's try a different one.
Lookup: Below 80% on Activity? Entry CC(C)C[C@H]1NC(=O)[C@@H](Cc2ccccc2)NC(=O)[C@@H](CC(C)C)NC(=O)[C@H](NC(=O)[C@@H](Cc2ccccc2)NC(=O)C(C)C)[C@H](C)OC(=O)[C@H](CO)NC(=O)[C@@H]([C@H](C)O)NC1=O
Found: 0
